System: soybean plantlets
Test: High-throughput soybean screening for herbicide tolerance (plantlets)
Format: in vivo, soybean (A3555)
Parameters: key: 0 for poor tolerance, high damage, low green coloration; 1 for some tolerance, average damage, moderate green coloration; 2 for good tolerance, low damage, high green coloration
Conditions: TP33; S-3100 spray five weeks post-transformation, scored day four
Excerpt: A high-throughput plant transformation and screening method was used to evaluate large numbers of constructs in transgenic plants for herbicide tolerance in early transformation plantlet tissue. This allowed for faster and higher volume screening of construct configurations and PPO enzymes. This permitted the side-by-side comparison of seven different HemG PPO enzymes with thirty-seven different targeting peptides using the same promoter and 3′UTR elements for gene expression. […]
property.measured: coloration score
API note: the answer field is a bare number with no unit suffix.

Record H_N30: microbial HemG protoporphyrinogen oxidase, SEQ ID NO:5 (SEQ ID NO:14 lacking start methionine) (protein, listed as Erwinia toletana) MKALILFSSREGQTREIASYIANSIKEEMECDVFNILRVEQIDWSQYDRVLIGGSIHYGHFHPAVAKFVKRHLHELQQRSSGFFCVNLTARKADKRTPQTNAYMRKFLLQSPWQPDCCAVFAGALRYTRYRWFDRVMIQLIMRMTGGETDTSKEVEYTDWTQVARFAQEFAHLPGKTQ , field coloration score: 1
